Can you tell me AC50 for the items I'm about to list?

Give AC50 (Neuronal acetylcholine receptor subunit alpha-4 (Homo sapiens)) of the following molecule: Clc1ccc2c(c1)C(N1CCNCC1)=Nc1ccccc1O2
> 10 µM

Give AC50 (Neuronal acetylcholine receptor subunit alpha-4 (Homo sapiens)) of the following molecule: COC1=C(OC)C(=O)C(CCCCCCCCCCO)=C(C)C1=O
> 10 µM

Give AC50 (Neuronal acetylcholine receptor subunit alpha-4 (Homo sapiens)) of the following molecule: CC#CCn1c(N2CCC[C@@H](N)C2)nc2c1c(=O)n(Cc1nc(C)c3ccccc3n1)c(=O)n2C
> 10 µM

Give AC50 (Neuronal acetylcholine receptor subunit alpha-4 (Homo sapiens)) of the following molecule: CN1c2ccccc2C(NCCCCCCC(=O)O)c2ccc(Cl)cc2S1(=O)=O (stereo not drawn)
> 30 µM

Give AC50 (Neuronal acetylcholine receptor subunit alpha-4 (Homo sapiens)) of the following molecule: Nc1nc2c(c(=O)[nH]1)N(C=O)C(CNc1ccc(C(=O)N[C@@H](CCC(=O)O)C(=O)O)cc1)CN2 (stereo partly drawn)
> 30 µM

Give AC50 (Neuronal acetylcholine receptor subunit alpha-4 (Homo sapiens)) of the following molecule: CCC(=O)OCC(=O)[C@@]1(OC(=O)CC)[C@@H](C)C[C@H]2[C@@H]3CCC4=CC(=O)C=C[C@]4(C)[C@@]3(F)[C@@H](O)C[C@@]21C [BETAMETHASONE DIPROPIONATE]
> 30 µM

Give AC50 (Neuronal acetylcholine receptor subunit alpha-4 (Homo sapiens)) of the following molecule: CC(=O)OCC(CCn1cnc2cnc(N)nc21)COC(C)=O
> 10 µM

Give AC50 (Neuronal acetylcholine receptor subunit alpha-4 (Homo sapiens)) of the following molecule: CC(C)OC(=O)C(C(=O)OC(C)C)=C1SC=CS1 [MALOTILATE]
> 30 µM

Give AC50 (Neuronal acetylcholine receptor subunit alpha-4 (Homo sapiens)) of the following molecule: CCCNC(C)C(=O)Nc1ccccc1C (stereo not drawn)
> 30 µM

Give AC50 (Neuronal acetylcholine receptor subunit alpha-4 (Homo sapiens)) of the following molecule: [H]/N=C(\N/C(=N/[H])NCCCCCCNC(=N)NC(=N)Nc1ccc(Cl)cc1)Nc1ccc(Cl)cc1
> 30 µM

Give AC50 (Neuronal acetylcholine receptor subunit alpha-4 (Homo sapiens)) of the following molecule: CC1(C)O[C@@H]2[C@@H](CO[C@@]3(COS(N)(=O)=O)OC(C)(C)O[C@@H]23)O1 [TOPIRAMATE]
> 10 µM

Give AC50 (Neuronal acetylcholine receptor subunit alpha-4 (Homo sapiens)) of the following molecule: CC(CCc1ccccc1)NC(C)C(O)c1ccc(O)cc1 (stereo not drawn)
> 10 µM

Give AC50 (Neuronal acetylcholine receptor subunit alpha-4 (Homo sapiens)) of the following molecule: CCCN(CCC)CCc1cccc2c1CC(=O)N2
> 30 µM

---

Can you tell me AC50 for the items I'm about to list?

Give AC50 (Vasopressin V1a receptor (Homo sapiens, UniProt P37288)) of the following compound: CO/N=C(\C(=O)N[C@@H]1C(=O)N2C(C(=O)O)=C(COC(N)=O)CS[C@H]12)c1ccco1 [CEFUROXIME]
> 30 µM

Give AC50 (Vasopressin V1a receptor (Homo sapiens, UniProt P37288)) of the following compound: CCCCCCOC(=O)CCC(=O)CN [HEXAMINOLEVULINATE]
> 30 µM

Give AC50 (Vasopressin V1a receptor (Homo sapiens, UniProt P37288)) of the following compound: CCC(=O)OCC(=O)[C@@]1(OC(=O)CC)[C@@H](C)C[C@H]2[C@@H]3CCC4=CC(=O)C=C[C@]4(C)[C@@]3(F)[C@@H](O)C[C@@]21C [BETAMETHASONE DIPROPIONATE]
> 30 µM

Give AC50 (Vasopressin V1a receptor (Homo sapiens, UniProt P37288)) of the following compound: Nc1nc(F)nc2c1ncn2[C@@H]1O[C@H](COP(=O)(O)O)[C@@H](O)[C@@H]1O [FLUDARABINE PHOSPHATE]
> 30 µM

Give AC50 (Vasopressin V1a receptor (Homo sapiens, UniProt P37288)) of the following compound: CN1CCN(c2c(F)cc3c(=O)c(C(=O)O)cn4c3c2SCC4)CC1 [RUFLOXACIN]
> 30 µM

Give AC50 (Vasopressin V1a receptor (Homo sapiens, UniProt P37288)) of the following compound: O=C(O)CSCC(=O)NC1CCSC1=O (configuration not stated) [ERDOSTEINE]
> 30 µM

Give AC50 (Vasopressin V1a receptor (Homo sapiens, UniProt P37288)) of the following compound: CNCC[C@H](Oc1cccc2ccccc12)c1cccs1 [DULOXETINE]
> 30 µM

Give AC50 (Vasopressin V1a receptor (Homo sapiens, UniProt P37288)) of the following compound: CN(C)C(=O)Oc1cc(OC(=O)N(C)C)cc(C(O)CNC(C)(C)C)c1 (configuration not stated) [BAMBUTEROL]
> 30 µM

Give AC50 (Vasopressin V1a receptor (Homo sapiens, UniProt P37288)) of the following compound: Clc1cccc(Cl)c1N=C1NCCN1 [CLONIDINE]
> 10 µM

Give AC50 (Vasopressin V1a receptor (Homo sapiens, UniProt P37288)) of the following compound: COC1=C(OC)C(=O)C(CCCCCCCCCCO)=C(C)C1=O [IDEBENONE]
> 10 µM

Give AC50 (Vasopressin V1a receptor (Homo sapiens, UniProt P37288)) of the following compound: NCCCC(O)(P(=O)(O)O)P(=O)(O)O [ALENDRONIC ACID]
> 10 µM

Give AC50 (Vasopressin V1a receptor (Homo sapiens, UniProt P37288)) of the following compound: CCCOC(C(=O)OC1CCN(C)CC1)(c1ccccc1)c1ccccc1 [PROPIVERINE]
> 30 µM
